A collection of compounds and their measured TGI
Tested on: XF 498 CNS
Assay: NCI tumour cell line growth inhibition, 48 h

Examples from the recorded data:
• COc1ccc(/C=C2/C[N+](C)(C)C/C(=C/c3ccc(OC)cc3)C2=O)cc1 = > 100 µM
• CS(=O)c1ccc(COP(N)(=O)N(CCCl)CCCl)cc1 (stereo unspecified) = > 100 µM
• ON=C1CCC(c2ccccc2)CC1 (stereo unspecified) = > 100 µM
• O=C(c1ccncc1)n1nc(-c2ccccc2)c(N=Nc2ccc([N+](=O)[O-])cc2)c1-c1ccccc1 = > 100 µM

Briefly, TGI measured for C[C@]12CCC(=O)C(O)=C1CC[C@@H]1[C@@H]2CC[C@]2(C)C(=O)CC[C@@H]12 : > 100 µM

Briefly, TGI measured for CCOC(=O)C1C(=O)c2ccccc2CN1Cc1ccccc1 (stereo unspecified) : > 100 µM

Briefly, TGI measured for O=S(O)c1cc(Cl)cc(Cl)c1O : > 100 µM

Briefly, TGI measured for CC1NOC(=O)C1N=Nc1ccccc1Cl (stereo unspecified) : > 100 µM

Briefly, TGI measured for Cc1cc(C)nc(Nc2nc3ccc([N+](=O)[O-])cc3[nH]2)n1 : > 100 µM

Briefly, TGI measured for COC(=O)c1c(CC#N)cccc1CC#N : > 100 µM

Briefly, TGI measured for CC1=NN(C(=O)Cc2ccccc2)C(=O)/C1=C\C=C\c1ccccc1 : > 100 µM

Briefly, TGI measured for CC(C(=O)Oc1ccc2ccccc2c1-c1c(O)ccc2ccccc12)c1ccccc1 (stereo unspecified) : 27.3 µM

Briefly, TGI measured for O=c1cc2ccccc2nn1-c1ccccc1Cl : 77.5 µM

Briefly, TGI measured for COC(=O)CC1C(=O)OCc2c1cc1n(c2=O)Cc2c-1nc1ccccc1c2OC (stereo unspecified) : > 100 µM

Briefly, TGI measured for CCOC(=O)CC1=CSC2=NCCN12 : > 100 µM

Briefly, TGI measured for CC(O)C(O)C(N)CC=O (stereo unspecified) : > 414 µM

====

System: SK-MEL-28 melanoma
Test: NCI tumour cell line growth inhibition, 48 h
A collection of molecules and their measured TGI

Examples from the recorded data:
* CC1N(C)C(=O)OC12CCN(CCCC(=O)c1ccc(F)cc1)CC2 (stereo unspecified) | > 100 µM
* Cc1c2cc[nH]c(=O)c2cc2c(=O)c3cnccc3[nH]c12 | > 100 µM

Briefly, TGI measured for C[N+](C)(CCCCCC[N+](C)(C)CCCN1C(=O)c2cc3ccccc3cc2C1=O)CCCN1C(=O)c2ccccc2C1=O : > 37.5 µM

Briefly, TGI measured for O=S(=O)(c1ccc(I)cc1)N(c1ccccc1)S(=O)(=O)C(F)(F)C(F)(F)C(F)(F)C(F)(F)F : > 100 µM

Briefly, TGI measured for C[Si](C)(C)OC1c2[nH]c3ccccc3c2CN2C(=O)CCC12 (stereo unspecified) : > 100 µM

Briefly, TGI measured for CC(c1cccc2ccccc12)/[N+]([O-])=C/c1ccccc1 (stereo unspecified) : > 100 µM

====

Test system: NCI-H522 lung
Experiment: NCI tumour cell line growth inhibition, 48 h
Parameter: TGI

* CCOC(=O)CC1=CSC2=NCCN12 | > 100 µM
* O=C1N=C(c2ccccc2)O/C1=C\c1ccccc1 | > 100 µM
* OC1CC(O)c2c(Cl)sc(Cl)c21 (centres undefined) | 56.8 µM

Then this compound:
Briefly, TGI measured for CC(C)(C)N1NC1C1NN1C(C)(C)C (centres undefined) : > 100 µM

All figures here come from PubChem BioAssay (NCI).
